Control effect Expected value (Colby) overview
# Test system: Septoria tritici, KUK-1-21 Strain
# procedureSummary: Test for wheat leaf blotch, fluoroimide and/or SDHI agent sprayed on wheat pots, lesion area index 21 days after inoculation
# Format: in vivo
# protocolConditions: SDHI agent 3 ppm + fluoroimide 100 ppm
Number only, in %; omit the unit.

compound	unitString	Control effect Expected value (Colby)
O=C(Nc1ccccc1-c1ccc(Cl)cc1)c1cccnc1Cl	%	36

Which Control effect Expected value (Colby) is listed for CC(C)C1C2CCC1c1c(NC(=O)c3cn(C)nc3C(F)F)cccc12 (stereo not shown) ?
81

Which Control effect Expected value (Colby) is listed for Cn1cc(C(=O)Nc2ccc(F)cc2-c2ccc(Cl)c(Cl)c2)c(C(F)F)n1 ?
89

Which Control effect Expected value (Colby) is listed for Cn1cc(C(=O)Nc2ccccc2-c2cc(F)c(F)c(F)c2)c(C(F)F)n1 ?
96

---

# System: Septoria tritici, KUK-1-21 Strain
# procedureSummary: Test for wheat leaf blotch, fluoroimide and/or SDHI agent sprayed on wheat pots, lesion area index 21 days after inoculation
# Assay type: in vivo
# protocolConditions: SDHI agent 10 ppm + fluoroimide 50 ppm
quantityKind: Control effect Expected value (Colby) (%)
Number only, in %; omit the unit.

# annotated cases, reported Control effect Expected value (Colby) shown
compound	Control effect Expected value (Colby) / %
O=C(Nc1ccccc1-c1ccc(Cl)cc1)c1cccnc1Cl [boscalid]	62
Cn1cc(C(=O)Nc2ccc(F)cc2-c2ccc(Cl)c(Cl)c2)c(C(F)F)n1 [bixafen]	100
CC(C)C1C2CCC1c1c(NC(=O)c3cn(C)nc3C(F)F)cccc12 (stereo not shown) [isopyrazam]	100

// next item, Control effect Expected value (Colby) requested
Please provide the recorded Control effect Expected value (Colby) for Cn1cc(C(=O)Nc2ccccc2-c2cc(F)c(F)c(F)c2)c(C(F)F)n1 [fluxapyroxad] , tested on Septoria tritici, KUK-1-21 Strain.
100

---

# Test system: Septoria tritici, KUK-1-21 Strain
# procedureSummary: Test for wheat leaf blotch, fluoroimide and/or DMI agent sprayed on wheat pots, lesion area index 17 days after inoculation
# Type: in vivo
# protocolConditions: DMI agent 10 ppm, fluoroimide 0 ppm; 17 days
Quick rule for you: Controlling effect DMI alone at 10% or higher means Met, lower means Not met.

molecule	assignedClass
CC1(C)CCC(Cc2ccc(Cl)cc2)C1(O)Cn1cncn1 (stereo not shown) [metconazole]	Met
CC1COC(Cn2cncn2)(c2ccc(Oc3ccc(Cl)cc3)cc2Cl)O1 (stereo not shown) [difenoconazole]	Met
OC(Cc1ccccc1Cl)(Cn1nc[nH]c1=S)C1(Cl)CC1 (stereo not shown) [prothioconazole]	Not met
Fc1ccc([C@]2(Cn3cncn3)O[C@H]2c2ccccc2Cl)cc1 (racemic) [epoxiconazole]	Met
CCCC1COC(Cn2cncn2)(c2ccc(Cl)cc2Cl)O1 (stereo not shown) [propiconazole]	Met
CCCN(CCOc1c(Cl)cc(Cl)cc1Cl)C(=O)n1ccnc1 [prochloraz]	Not met

Field: next molecule
# bool: Controlling effect DMI alone of CC(C)(C)C(O)(CCc1ccc(Cl)cc1)Cn1cncn1 (stereo not shown) [tebuconazole] >= 10%
Met

---

Control effect SDHI alone overview
# System: Septoria tritici, KUK-1-21 Strain
# procedureSummary: Test for wheat leaf blotch, fluoroimide and/or SDHI agent sprayed on wheat pots, lesion area index 21 days after inoculation
# Assay type: in vivo
# protocolConditions: SDHI agent 10 ppm, fluoroimide 0 ppm; 21 days
Number only, in %; omit the unit.

# annotated cases, reported Control effect SDHI alone shown
molecule	Control effect SDHI alone / %
Cn1cc(C(=O)Nc2ccccc2-c2cc(F)c(F)c(F)c2)c(C(F)F)n1	100
O=C(Nc1ccccc1-c1ccc(Cl)cc1)c1cccnc1Cl	60
Cn1cc(C(=O)Nc2ccc(F)cc2-c2ccc(Cl)c(Cl)c2)c(C(F)F)n1	100

// next item, Control effect SDHI alone requested
Please provide the recorded Control effect SDHI alone for CC(C)C1C2CCC1c1c(NC(=O)c3cn(C)nc3C(F)F)cccc12 (stereo not shown) , tested on Septoria tritici, KUK-1-21 Strain.
100

---

# Tested on: Septoria tritici, KUK-1-21 Strain
# procedureSummary: Test for wheat leaf blotch, fluoroimide and/or SDHI agent sprayed on wheat pots, lesion area index 21 days after inoculation
# Format: in vivo
# protocolConditions: SDHI agent 1 ppm, fluoroimide 0 ppm; 21 days
Control effect SDHI alone overview
Quick note: unit goes after the number.

molecule	systemName	Control effect SDHI alone
Cn1cc(C(=O)Nc2ccccc2-c2cc(F)c(F)c(F)c2)c(C(F)F)n1 [fluxapyroxad]	Septoria tritici, KUK-1-21 Strain	0%
Cn1cc(C(=O)Nc2ccc(F)cc2-c2ccc(Cl)c(Cl)c2)c(C(F)F)n1 [bixafen]	Septoria tritici, KUK-1-21 Strain	75%
CC(C)C1C2CCC1c1c(NC(=O)c3cn(C)nc3C(F)F)cccc12 (stereo not shown) [isopyrazam]	Septoria tritici, KUK-1-21 Strain	15%

// next item, Control effect SDHI alone requested
Which Control effect SDHI alone is listed for O=C(Nc1ccccc1-c1ccc(Cl)cc1)c1cccnc1Cl [boscalid] ?
5%

---

# Tested on: Septoria tritici, KUK-1-21 Strain
# procedureSummary: Test for wheat leaf blotch, fluoroimide and/or DMI agent sprayed on wheat pots, lesion area index 17 days after inoculation
# Type: in vivo
# protocolConditions: DMI agent 3 ppm + fluoroimide 50 ppm; 17 days
Controlling effect Combination with fluoroimide overview
Number only, in %; omit the unit.

# annotated cases, reported Controlling effect Combination with fluoroimide shown
molecule	readoutNumber
CCCC1COC(Cn2cncn2)(c2ccc(Cl)cc2Cl)O1 (stereo not shown) [propiconazole]	89
CC1COC(Cn2cncn2)(c2ccc(Oc3ccc(Cl)cc3)cc2Cl)O1 (stereo not shown) [difenoconazole]	89
CC(C)(C)C(O)(CCc1ccc(Cl)cc1)Cn1cncn1 (stereo not shown) [tebuconazole]	68
OC(Cc1ccccc1Cl)(Cn1nc[nH]c1=S)C1(Cl)CC1 (stereo not shown) [prothioconazole]	30

Please provide the recorded Controlling effect Combination with fluoroimide for CC1(C)CCC(Cc2ccc(Cl)cc2)C1(O)Cn1cncn1 (stereo not shown) [metconazole] , tested on Septoria tritici, KUK-1-21 Strain.
84

Please provide the recorded Controlling effect Combination with fluoroimide for CCCN(CCOc1c(Cl)cc(Cl)cc1Cl)C(=O)n1ccnc1 [prochloraz] , tested on Septoria tritici, KUK-1-21 Strain.
41

Please provide the recorded Controlling effect Combination with fluoroimide for Fc1ccc([C@]2(Cn3cncn3)O[C@H]2c2ccccc2Cl)cc1 (racemic) [epoxiconazole] , tested on Septoria tritici, KUK-1-21 Strain.
62

---

# System: Septoria tritici, KUK-1-21 Strain
# procedureSummary: Test for wheat leaf blotch, fluoroimide and/or DMI agent sprayed on wheat pots, lesion area index 17 days after inoculation
# Assay type: in vivo
# protocolConditions: DMI agent 3 ppm + fluoroimide 100 ppm; 17 days
quantityKind: Controlling effect Combination with fluoroimide
Quick note: unit goes after the number.

# annotated cases, reported Controlling effect Combination with fluoroimide shown
compound	result
OC(Cc1ccccc1Cl)(Cn1nc[nH]c1=S)C1(Cl)CC1 (stereo not shown)	72%
CCCC1COC(Cn2cncn2)(c2ccc(Cl)cc2Cl)O1 (stereo not shown)	94%
CC(C)(C)C(O)(CCc1ccc(Cl)cc1)Cn1cncn1 (stereo not shown)	94%
CCCN(CCOc1c(Cl)cc(Cl)cc1Cl)C(=O)n1ccnc1	72%
CC1COC(Cn2cncn2)(c2ccc(Oc3ccc(Cl)cc3)cc2Cl)O1 (stereo not shown)	89%
CC1(C)CCC(Cc2ccc(Cl)cc2)C1(O)Cn1cncn1 (stereo not shown)	89%

Which Controlling effect Combination with fluoroimide is listed for Fc1ccc([C@]2(Cn3cncn3)O[C@H]2c2ccccc2Cl)cc1 (racemic) ?
83%

---

# Tested on: Septoria tritici, KUK-1-21 Strain
# procedureSummary: Test for wheat leaf blotch, fluoroimide and/or SDHI agent sprayed on wheat pots, lesion area index 21 days after inoculation
# Type: in vivo
# protocolConditions: SDHI agent 3 ppm + fluoroimide 100 ppm; 21 days
quantityKind: Control effect Combination with fluoroimide (%)
Number only, in %; omit the unit.

molecule	readoutNumber
Cn1cc(C(=O)Nc2ccccc2-c2cc(F)c(F)c(F)c2)c(C(F)F)n1	100
Cn1cc(C(=O)Nc2ccc(F)cc2-c2ccc(Cl)c(Cl)c2)c(C(F)F)n1	90
CC(C)C1C2CCC1c1c(NC(=O)c3cn(C)nc3C(F)F)cccc12 (stereo not shown)	85

// next item, Control effect Combination with fluoroimide requested
Which Control effect Combination with fluoroimide is listed for O=C(Nc1ccccc1-c1ccc(Cl)cc1)c1cccnc1Cl ?
80

---

Controlling effect Expected value (Colby) overview
# Test system: Septoria tritici, KUK-1-21 Strain
# procedureSummary: Test for wheat leaf blotch, fluoroimide and/or DMI agent sprayed on wheat pots, lesion area index 17 days after inoculation
# Format: in vivo
# protocolConditions: DMI agent 1 ppm + fluoroimide 50 ppm
# Protocol: Test for Wheat Leaf Blotch (Septoria tritici, KUK-1-21 Strain): Agrochemical liquids containing a predetermined concentration of fluoroimide and/or a predetermined concentration of each DMI agent were applied to wheat in a predetermined amount with a spray gun. […] Seventeen days after the inoculation, the lesion area index (0-10) was determined for the evaluation of the control effect. […]
Number only, in %; omit the unit.

# annotated cases, reported Controlling effect Expected value (Colby) shown
compound	unitString	readoutNumber
CC1COC(Cn2cncn2)(c2ccc(Oc3ccc(Cl)cc3)cc2Cl)O1 (stereo not shown)	%	25
CCCC1COC(Cn2cncn2)(c2ccc(Cl)cc2Cl)O1 (stereo not shown)	%	25
OC(Cc1ccccc1Cl)(Cn1nc[nH]c1=S)C1(Cl)CC1 (stereo not shown)	%	25
CCCN(CCOc1c(Cl)cc(Cl)cc1Cl)C(=O)n1ccnc1	%	25
CC(C)(C)C(O)(CCc1ccc(Cl)cc1)Cn1cncn1 (stereo not shown)	%	30
CC1(C)CCC(Cc2ccc(Cl)cc2)C1(O)Cn1cncn1 (stereo not shown)	%	30

// next item, Controlling effect Expected value (Colby) requested
Please provide the recorded Controlling effect Expected value (Colby) for Fc1ccc([C@]2(Cn3cncn3)O[C@H]2c2ccccc2Cl)cc1 (racemic) , tested on Septoria tritici, KUK-1-21 Strain.
25
